Hello, the source for this data is ChEMBL document CHEMBL1125868, in case you need it.

The reader will find reported pKi values listed item by item below.
# Target: UniProtKB P61169
# Sequence (P61169 whole entry): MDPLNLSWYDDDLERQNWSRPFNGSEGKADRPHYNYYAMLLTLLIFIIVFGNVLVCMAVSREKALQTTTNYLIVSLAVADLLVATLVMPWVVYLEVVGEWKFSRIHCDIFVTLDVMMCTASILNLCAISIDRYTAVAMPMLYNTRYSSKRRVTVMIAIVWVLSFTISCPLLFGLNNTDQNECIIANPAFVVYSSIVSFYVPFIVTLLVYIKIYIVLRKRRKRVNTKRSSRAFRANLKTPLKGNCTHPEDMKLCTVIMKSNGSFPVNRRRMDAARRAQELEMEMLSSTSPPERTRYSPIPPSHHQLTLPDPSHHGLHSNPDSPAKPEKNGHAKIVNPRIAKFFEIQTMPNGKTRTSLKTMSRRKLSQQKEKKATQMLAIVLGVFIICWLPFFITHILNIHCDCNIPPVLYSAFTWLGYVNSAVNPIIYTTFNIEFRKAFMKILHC
# Assay details: Binding affinity towards dopamine receptor D2 using as [3H]-spiperone radioligand.
Value format note: pKi is -log10 of concentration (mol/L); just state the number.

| Smiles input | Reported measurement |
| --- | --- |
| CCCCCCN1CCC[C@H]1CNC(=O)c1cc(S(N)(=O)=O)ccc1OC | 5.85 |
| CCCCCCN1CCC[C@@H]1CNC(=O)c1cc(S(N)(=O)=O)cc2c1O[C@@H](C)C2 | 8.17 |

What measured pKi goes with `CCN1CCC[C@H]1CNC(=O)c1cc(S(N)(=O)=O)cc2c1O[C@H](C)C2` ?
7.68

Likewise for `CCN1CCC[C@@H]1CNC(=O)c1cc(S(N)(=O)=O)cc2c1O[C@@H](C)C2` ?
6.40

What do you get for `CCCCN1CCC[C@@H]1CNC(=O)c1cc(S(N)(=O)=O)cc2c1O[C@@H](C)C2` ?
8.03

Request: `CCN1CCC[C@@H]1CNC(=O)c1cc(S(N)(=O)=O)cc2c1O[C@H](C)C2`
6.19

Repeat for the following compound: `CCCCN1CCC[C@H]1CNC(=O)c1cc(S(N)(=O)=O)ccc1OC`
7.29

Item: `CCCCN1CCC[C@H]1CNC(=O)c1cc(S(N)(=O)=O)cc2c1O[C@H](C)C2`
6.68

Similarly, `CCN1CCC[C@H]1CNC(=O)c1cc(S(N)(=O)=O)cc2c1O[C@@H](C)C2` ?
8.02

Now the compound `CCCCCCN1CCC[C@@H]1CNC(=O)c1cc(S(N)(=O)=O)ccc1OC`
7.23

Next record, please: `CCCCN1CCC[C@H]1CNC(=O)c1cc(S(N)(=O)=O)cc2c1O[C@@H](C)C2`
7.02

What about this compound? `CCCCN1CCC[C@@H]1CNC(=O)c1cc(S(N)(=O)=O)ccc1OC`
6.64

* * *

# Tested on: Dopamine receptor (Mus musculus)
# Assay details: Inhibitory effects on the hyperactivity against dopamine receptor after peroral administration
Labelling: ED50 reported below 90 mg/kg becomes 1 (yes); at or above becomes 0 (no).

Would you please look over these solved cases?
| Smiles input | Group |
| --- | --- |
| CCCCN1CCC[C@@H]1CNC(=O)c1cc(S(N)(=O)=O)ccc1OC | 0 (no) |
| CCN1CCC[C@H]1CNC(=O)c1cc(S(N)(=O)=O)cc2c1O[C@H](C)C2 | 1 (yes) |

Determine if `CCCCCCN1CCC[C@@H]1CNC(=O)c1cc(S(N)(=O)=O)ccc1OC` shows ED50 strictly lower than 90 mg/kg.
1 (yes)

Another: `CCN1CCC[C@@H]1CNC(=O)c1cc(S(N)(=O)=O)cc2c1O[C@@H](C)C2`
0 (no)

Another molecule to look at: `CCN1CCC[C@H]1CNC(=O)c1cc(S(N)(=O)=O)cc2c1O[C@@H](C)C2`
1 (yes)

Would you mind doing `CCCCCCN1CCC[C@H]1CNC(=O)c1cc(S(N)(=O)=O)ccc1OC` as well?
0 (no)

Thanks! And `CCCCN1CCC[C@H]1CNC(=O)c1cc(S(N)(=O)=O)ccc1OC` ?
0 (no)

* * *

# maps each entry to its ED50
# Test system: Mus musculus
# Assay details: Ability to inhibit apomorphine induced hyperactivity in mice after intraperitoneal administration
# Assay type: functional
# Condition set: ip

Example entries and their recorded answers appear below.
| Molecule | ED50 |
| --- | --- |
| CCN1CCC[C@H]1CNC(=O)c1cc(S(N)(=O)=O)cc2c1O[C@@H](C)C2 | 5.7 mg/kg |
| CCCCN1CCC[C@H]1CNC(=O)c1cc(S(N)(=O)=O)ccc1OC | 49.2 mg/kg |

Turning now to a further molecule:
GET /values?readout=ED50&item= `CCCCN1CCC[C@@H]1CNC(=O)c1cc(S(N)(=O)=O)cc2c1O[C@@H](C)C2`
3.7 mg/kg

* * *

# Tested on: Mus musculus
# Assay details: Ability to inhibit apomorphine induced hyperactivity in mice after intraperitoneal administration
# Type: functional
# Condition set: ip
Property label: ED50 (mg/kg)
I only need the number, in mg/kg, no unit after it.

// lookup ED50 for `CCCCN1CCC[C@@H]1CNC(=O)c1cc(S(N)(=O)=O)cc2c1O[C@H](C)C2`
11.6

// repeat for `CCN1CCC[C@H]1CNC(=O)c1cc(S(N)(=O)=O)cc2c1O[C@H](C)C2` and report
11

Then what about the compound `CCCCCCN1CCC[C@@H]1CNC(=O)c1cc(S(N)(=O)=O)cc2c1O[C@@H](C)C2` ?
12.2

Let us now turn to `CCCCN1CCC[C@H]1CNC(=O)c1cc(S(N)(=O)=O)cc2c1O[C@@H](C)C2`
38.8

Likewise for CCN1CCC[C@H]1CNC(=O)c1cc(S(N)(=O)=O)ccc1OC [LEVOSULPIRIDE] ?
9.3

Item: `CCCCN1CCC[C@H]1CNC(=O)c1cc(S(N)(=O)=O)cc2c1O[C@H](C)C2`
72.1

Same read-out for `CCCCCCN1CCC[C@@H]1CNC(=O)c1cc(S(N)(=O)=O)ccc1OC` ?
28.2

* * *

Reported ED50 values for a set of molecules
# Tested on: Mus musculus
# Assay details: Ability to inhibit apomorphine induced hyperactivity in mice after intraperitoneal administration
# Assay type: functional
# Condition set: ip
Please reply with the bare figure in mg/kg and do not write the unit itself.

| Smiles input | ED50, mg/kg |
| --- | --- |
| CCCCN1CCC[C@@H]1CNC(=O)c1cc(S(N)(=O)=O)ccc1OC | 92.3 |
| CCN1CCC[C@@H]1CNC(=O)c1cc(S(N)(=O)=O)cc2c1O[C@H](C)C2 | 145 |

Please find the next molecule below.
// lookup ED50 for `CCN1CCC[C@@H]1CNC(=O)c1cc(S(N)(=O)=O)cc2c1O[C@@H](C)C2`
71.7

* * *

// ED50 lookup, one value per entry
# Tested on: Mus musculus
# Assay details: Ability to inhibit apomorphine induced hyperactivity in mice after intraperitoneal administration
# Type: functional
# Condition set: ip

| Smiles input | Target | Property label | Reported measurement |
| --- | --- | --- | --- |
| CCCCCCN1CCC[C@H]1CNC(=O)c1cc(S(N)(=O)=O)ccc1OC | Mus musculus | ED50 | > 100 mg/kg |
| CCN1CCC[C@@H]1CNC(=O)c1cc(S(N)(=O)=O)ccc1OC | Mus musculus | ED50 | > 250 mg/kg |

Which ED50 reading was recorded for the compound `CCCCCCN1CCC[C@H]1CNC(=O)c1cc(S(N)(=O)=O)cc2c1O[C@@H](C)C2` ?
> 100 mg/kg
